Cited source: paper PMC8356907

# studyTarget: T1, human integrin αvβ3 purified protein (human), P06756
# T1 chain 1: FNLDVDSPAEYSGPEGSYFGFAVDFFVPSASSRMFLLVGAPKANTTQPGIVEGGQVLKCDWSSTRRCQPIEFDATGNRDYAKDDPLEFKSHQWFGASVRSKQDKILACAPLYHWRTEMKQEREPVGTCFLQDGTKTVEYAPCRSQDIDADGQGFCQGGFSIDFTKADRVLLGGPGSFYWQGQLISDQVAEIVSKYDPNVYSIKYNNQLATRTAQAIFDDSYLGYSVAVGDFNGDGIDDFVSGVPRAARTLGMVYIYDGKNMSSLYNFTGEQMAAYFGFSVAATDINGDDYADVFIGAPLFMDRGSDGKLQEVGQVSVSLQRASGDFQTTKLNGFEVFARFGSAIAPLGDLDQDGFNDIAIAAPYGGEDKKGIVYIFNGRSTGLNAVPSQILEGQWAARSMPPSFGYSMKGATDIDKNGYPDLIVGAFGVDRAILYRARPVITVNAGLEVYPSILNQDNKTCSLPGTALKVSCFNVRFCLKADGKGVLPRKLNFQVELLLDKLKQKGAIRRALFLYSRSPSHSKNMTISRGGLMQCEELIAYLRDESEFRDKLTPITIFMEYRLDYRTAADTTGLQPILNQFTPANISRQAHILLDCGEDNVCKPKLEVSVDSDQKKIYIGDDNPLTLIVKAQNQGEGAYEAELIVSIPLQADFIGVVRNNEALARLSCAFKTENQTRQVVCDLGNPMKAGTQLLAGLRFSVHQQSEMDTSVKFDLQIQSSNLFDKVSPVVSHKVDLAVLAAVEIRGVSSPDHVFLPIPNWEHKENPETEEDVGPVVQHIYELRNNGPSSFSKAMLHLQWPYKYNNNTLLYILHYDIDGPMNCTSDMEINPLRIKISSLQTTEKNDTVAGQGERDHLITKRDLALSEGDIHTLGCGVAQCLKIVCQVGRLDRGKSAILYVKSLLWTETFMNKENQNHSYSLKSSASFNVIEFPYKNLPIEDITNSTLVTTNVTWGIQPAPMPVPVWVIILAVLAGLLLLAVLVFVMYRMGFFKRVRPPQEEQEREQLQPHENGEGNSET
# T1 chain 2: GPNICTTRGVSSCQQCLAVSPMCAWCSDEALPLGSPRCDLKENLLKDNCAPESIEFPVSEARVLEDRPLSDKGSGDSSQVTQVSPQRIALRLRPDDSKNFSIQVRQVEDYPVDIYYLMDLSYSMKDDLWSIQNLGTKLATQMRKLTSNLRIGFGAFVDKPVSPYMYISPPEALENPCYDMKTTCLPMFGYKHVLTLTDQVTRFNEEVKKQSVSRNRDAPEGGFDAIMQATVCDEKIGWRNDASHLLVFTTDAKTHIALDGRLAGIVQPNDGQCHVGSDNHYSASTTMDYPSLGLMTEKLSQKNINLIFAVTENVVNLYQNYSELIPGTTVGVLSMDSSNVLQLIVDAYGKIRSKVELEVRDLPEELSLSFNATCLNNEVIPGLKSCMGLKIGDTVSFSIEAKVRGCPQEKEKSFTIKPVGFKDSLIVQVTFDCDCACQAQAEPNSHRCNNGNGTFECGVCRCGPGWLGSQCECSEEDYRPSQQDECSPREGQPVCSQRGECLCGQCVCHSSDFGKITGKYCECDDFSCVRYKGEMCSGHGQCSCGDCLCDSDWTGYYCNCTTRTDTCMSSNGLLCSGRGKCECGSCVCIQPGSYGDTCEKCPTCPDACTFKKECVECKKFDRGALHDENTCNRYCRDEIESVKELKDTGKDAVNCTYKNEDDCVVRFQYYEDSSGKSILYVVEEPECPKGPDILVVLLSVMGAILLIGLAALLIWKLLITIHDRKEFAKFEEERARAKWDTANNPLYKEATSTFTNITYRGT
# measurementProtocol: radioligand binding
# statedConditions: remark: other sources report otherwise
Square brackets hold non-standard residues; d marks the D form.
recordedMetric: Ki (nM)

> print(dat)
                                     binder  recordedmetric  reportedmeasurement
1  cyclo(RGD[dF]K) (also: cypate label, position not given here) [LS167 (Cypate-c(RGDfK))]              Ki                 1.62
